This collection of values is drawn from ChEMBL document CHEMBL6092140.

Assay: Inhibition of wild type ATG12-ATG3 protein protein interaction (unknown origin) expressed in HEK293T cells preincubated for ATG12 for 1 hr followed by ATG3 addition by luminescence based microplate analysis
Assay type: cell-based, Homo sapiens
ENDPOINT_LABEL: IC50

Known results for molecules:
The molecule listed as "O=C(O)c1ccc2c(Cc3ccccc3)nc(Nc3cccc(Cl)c3)nc2c1" shows IC50 equal to > 99 µM

The molecule listed as "N/C(=N\O)c1ccc2c(c1)nc(Nc1cccc(Cl)c1)c1cccnc12" shows IC50 equal to > 99 µM

More entries:
The molecule listed as "Cc1cn2c(Nc3ccc(Cl)cc3)nc3cc(C(=O)O)ccc3c2n1" shows IC50 equal to > 99 µM

----------
The entries below come with measured Activity values attached.
Biological target: Casein kinase II subunit alpha' (Homo sapiens)
Assay: Inhibition of […] (unknown origin) assessed as residual activity relative to control
Parameters: concentration or dose not given beside the values
Answer as a quantity: numeral, then unit.

The molecule listed as CC1=CN2C(Nc3cccc(Cl)c3)=Nc3cc(-c4nnn[nH]4)ccc3C2N1 (centres undefined) shows Activity equal to 80%

For the next question, use this molecule.
The molecule listed as "Cc1cn2c(Nc3cccc(OC(F)(F)F)c3)nc3cc(C(=O)O)ccc3c2n1" shows Activity equal to 42%

----------
Biological target: Casein kinase II subunit alpha' (Homo sapiens) (UniProt P19784)
Sequence (P19784 whole entry, looked up): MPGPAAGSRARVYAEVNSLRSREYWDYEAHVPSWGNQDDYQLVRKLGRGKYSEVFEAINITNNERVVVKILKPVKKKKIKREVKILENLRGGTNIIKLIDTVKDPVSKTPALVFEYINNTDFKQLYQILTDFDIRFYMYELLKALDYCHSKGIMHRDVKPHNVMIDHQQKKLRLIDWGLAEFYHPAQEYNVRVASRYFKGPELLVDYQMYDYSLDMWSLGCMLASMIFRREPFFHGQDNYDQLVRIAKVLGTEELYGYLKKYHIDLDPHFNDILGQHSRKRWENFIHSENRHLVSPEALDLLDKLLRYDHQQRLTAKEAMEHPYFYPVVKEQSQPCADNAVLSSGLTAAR
Test: Inhibition of […] (unknown origin) assessed as residual activity relative to control
Set-up: concentration or dose not given beside the values
ENDPOINT_LABEL: Activity (%)
Give the number; % is assumed, so skip it.

Known results for molecules:
The molecule listed as "O=C(O)c1ccc2c(c1)nc(Nc1cccc(Cl)c1)n1cc(Cc3ccccc3)nc21" shows Activity equal to 81

The molecule listed as "Cc1cn2c(Nc3cccc(C(F)(F)F)c3)nc3cc(C(=O)O)ccc3c2n1" shows Activity equal to 48

The molecule listed as "Cc1cnc2c3ccc(C(=O)O)cc3nc(Nc3cccc(Cl)c3)n12" shows Activity equal to 29

The molecule listed as "Cn1ncc2c3ccc(C(=O)O)cc3nc(Nc3cccc(Cl)c3)c21" shows Activity equal to 1

The molecule listed as "O=C(O)c1ccc2c(c1)nc(Nc1cccc(Cl)c1)n1ccnc21" shows Activity equal to 31

More entries:
The molecule listed as "Cc1cn2c(Nc3cccc(Cl)c3)nc3cc(P(=O)(O)O)ccc3c2n1" shows Activity equal to 95

The molecule listed as "Cn1cnc2c3ccc(C(=O)O)cc3nc(Nc3cccc(Cl)c3)c21" shows Activity equal to 55

----------
The entries below come with measured Activity values attached.
Target: Casein kinase II subunit alpha' (Homo sapiens) (UniProt P19784)
Test: Inhibition of […] (unknown origin) assessed as residual activity relative to control
Design: concentration or dose not given beside the values
Give the number; % is assumed, so skip it.

The compound listed as "O=C(O)c1ccc2c(c1)nc(Nc1cccc(Cl)c1)n1cc(-c3ccccc3)nc21" shows Activity equal to 114

The compound listed as "O=C(O)c1ccc2c(c1)nc(Nc1cccc(Cl)c1)c1cccnc12" shows Activity equal to 13

The compound listed as "Cc1cn2c(Nc3cccc(C(C)(C)C)c3)nc3cc(C(=O)O)ccc3c2n1" shows Activity equal to 102

The compound listed as CC1=CN2C(Nc3cccc(Cl)c3)=Nc3cc(C(N)=O)ccc3C2N1 (stereo not given) shows Activity equal to 109

More entries:
The compound listed as "O=C(O)c1ccc2c(c1)N=C(Nc1cccc(Cl)c1)N1CCCN=C21" shows Activity equal to 87
